Where these numbers come from: paper PMC8060913

Target: mouse TMEM16A (mTMEM16A, anoctamin 1) (Mus musculus, UniProt Q8BHY3)
Construct: gene Ano1
Sequence (Q8BHY3 1-960): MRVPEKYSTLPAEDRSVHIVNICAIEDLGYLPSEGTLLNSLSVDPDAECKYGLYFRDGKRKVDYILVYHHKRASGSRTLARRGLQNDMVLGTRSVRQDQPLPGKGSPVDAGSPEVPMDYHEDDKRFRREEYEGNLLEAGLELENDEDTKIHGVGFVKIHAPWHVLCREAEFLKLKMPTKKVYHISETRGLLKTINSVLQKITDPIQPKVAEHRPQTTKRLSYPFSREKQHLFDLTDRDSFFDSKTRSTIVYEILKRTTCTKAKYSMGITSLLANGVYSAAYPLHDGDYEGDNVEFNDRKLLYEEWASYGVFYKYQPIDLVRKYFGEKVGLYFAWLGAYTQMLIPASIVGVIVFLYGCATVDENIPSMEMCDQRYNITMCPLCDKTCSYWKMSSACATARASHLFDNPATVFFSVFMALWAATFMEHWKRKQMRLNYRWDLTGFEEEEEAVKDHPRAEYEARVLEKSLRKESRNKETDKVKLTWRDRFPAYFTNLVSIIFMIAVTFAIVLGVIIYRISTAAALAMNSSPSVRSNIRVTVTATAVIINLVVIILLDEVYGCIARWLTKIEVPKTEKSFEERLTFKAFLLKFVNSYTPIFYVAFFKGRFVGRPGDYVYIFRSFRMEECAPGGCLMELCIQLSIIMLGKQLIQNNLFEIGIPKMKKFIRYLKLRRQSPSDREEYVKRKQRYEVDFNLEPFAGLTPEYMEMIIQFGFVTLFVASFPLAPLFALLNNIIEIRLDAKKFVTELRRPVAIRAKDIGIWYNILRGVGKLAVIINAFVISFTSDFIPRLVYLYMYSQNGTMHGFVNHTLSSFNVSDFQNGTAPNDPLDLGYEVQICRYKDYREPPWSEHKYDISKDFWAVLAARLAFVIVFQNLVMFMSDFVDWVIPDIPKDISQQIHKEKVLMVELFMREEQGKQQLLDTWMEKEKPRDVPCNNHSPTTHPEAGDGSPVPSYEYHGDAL
Assay: whole-cell patch-clamp in transfected HEK293T cells, +[…] mV
Format: cell-based
Details: read-out: IC50
value-type: IC50 (µM)
Note: unit µM is implicit; provide only the numeric part.

Find the measured IC50 of O=C1c2ccc(O)cc2OCC1c1ccc(O)cc1 (stereo not shown) [dihydrodaidzein] with mouse TMEM16A (mTMEM16A, anoctamin 1) (Mus musculus, UniProt Q8BHY3) as test system.
178
